# method description: soluble on expression in E. coli; label from the status in PepcDB or PDB records
measurement name: soluble on expression in E. coli

Some sequences with known soluble on expression in E. coli results, for comparison:
INSERT INTO results (residues, result) VALUES
  ('MGSDKIHHHHHHMFRPQDDFTYLMPVHFGGGKFDPETLVTQKATALSLSFETERDLLENYIPEGFELLAPEVQVAFNKFTEINWLHGGQYNLINVAAPVRFHGKKDELDGAYTLVVWENKTAPILGGREQTGIPKIYADIEDLHIVRPHFATTVSYEGNTFLNMDFEATGSITGRDLDALKSQFLTMNTLGWRYIPKVGAPGAELSQFVLYPQGMEVETAEVGKGSLKWTELTPMQSPAQYYIVNSLASLPIKRVTQAVLVEGRAILRAMGARVIE', 'not soluble'),
  ('GPGSMLARGCVLRWHAVSARRVLGLHDGQSYTPADIKKAFRERALTAHPDAGGDADGFRQLQRAYEVLLHEHSVGKKGSEAAAASDDSEGGSGFYAHPHAEWCNDMRSQRAYWRDMYTEMNMNPNSCGSHRHASNTHYQARQHYRTYGEGLGEDFQKEFKSSSFAGGGQRGSQMNFSTWYFYRPYYSNYRNPFGTGFTPEEIRRAEQEQRRGFARAVARHACLWSGLAFVVYLHERNNRVWRAVEARDKGYKDPEYWEQLRKDEEEARRRSRAPLRLEQHWLDAPLMRSLMDLTEGGHSGGCGKNGQDAEDNISGAARAGTAWATQQARMAQERRRQAMSSTRGMRRGASGDVGGPRVVSYQGRPFTPNGVRGMRNTAPKTPKTYADDVTYEMDDDDDV', 'not soluble'),
  ('TSLFTTADHYHTPLGPDGTPHAFFEALRDEAETTPIGWSEAYGGHWVVAGYKEIQAVIQNTKAFSNKGVTFPRYETGEFELMMAGQDDPVHKKYRQLVAKPFSPEATDLFTEQLRQSTNDLIDARIELGEGDAATWLANEIPARLTAILLGLPPEDGDTYRRWVWAITHVENPEEGAEIFAELVAHARTLIAERRTNPGNDIMSRVIMSKIDGESLSEDDLIGFFTILLLGGIDATARFLSSVFWRLAWDIELRRRLIAHPELIPNAVDELLRFYGPAMVGRLVTQEVTVGDITMKPGQTAMLWFPIASRDRSAFDSPDNIVIERTPNRHLSLGHGIHRCLGAHLIRVEARVAITEFLKRIPEFSLDPNKECEWLMGQVAGMLHVPIIFPKGKRLSE', 'soluble'),
  ('MYSERPPLDPHPLSPYMAWTGYRNRDAILDVLKGVFPRDKSDVLEFAAGSGMHAHYFAQHFAHLTFHPSDSDEDLLPHIEERTRQSGLSNVARPRRLDLTQPETWPAGEKFHAIYCINVCQVAPVSIVGGIMACSSRILADGGFLFIYGPFLDYGRFASDFDEEFDRLLRSTGEEGWSLKDIAELDRAAGRHGMRLDDEIDMPSNDFALIYRRA', 'not soluble'),
  ('MIGNLKLKRFEEVNLVLSGGAAKGIAHIGVLKALEELGIKVKRLSGVSAGAIVSVFYASGYTPDEMLKLLKEVNWLKLFKFKTPKMGLMGWEKAAEFLEKELGVKRLEDLNIPTYLCSADLYTGKALYFGRGDLIPVLLGSCSIPGIFEPVEYENFLLVDGGIVNNLPVEPLEKFKEPIIGVDVLPITQERKIKNILHILIRSFFLAVRSNSEKRKEFCNVVIEPPLEEFSPLDVNKADEIFLRGYESTLRIMRNFVKHLEHHHHHH', 'not soluble'),
  ('MAHHHHHHMLCLVRAAEPKPYTALSPEALYEAVQPHDHTLRPSPFIAHQALMDFYKACDGYYGVNREEVDVQQLTSFEHKKTHGGASSGNNSGSNSGATLSSLLSGSASAAPSSSLSAAAGAPPLPPLPSPDDPNLAEKLNDYRIAQLRRNAQHVDNTVYHAHNSSNGGSNSNVANAGSSGVCHFYRTPEGCQRGAACPFTHLDKHGQPVNRVAKS', 'soluble'),
  ('GPGSMRDLNKRQQKFVCGCLGITSWDGKDIPFYVETMPKINDVVWVKITQVNDTSAVVQLLEYGKREGIIPYTEVTRRRVRSMGKLIKVGRTEPAQVIRIDKDKGYIDLSKKLVTPNEAKACEAHFRQGNEVRSIVCHVAELCDIPAMDAMEMIAYPLYQREPGKHAWTWLYELNQTEDVERILGPLKLEKAISDCLMLTLKNAMRLKVLTLFAEVEITCFACDGVEAIRDVLILGRSYGEGSDPQIHLSVNIIGPPKYGIRARTDMKEEGIQRMKEAIEAMTAEIKKRGGQLKVVSPPQPHGDADEGKKGFDGEDDDDEDAD', 'soluble'),
  ('MISILRRGLLVLLAALPLLANAASTPSAHDLVQDTTTRLLADLAANKEKYKQSPNDFYNALNSIVGPVVDADGISRSIMTVKYSRKATPEQMVRFQENFKRSLMQFYGNALLEYNNQGITVSPAKDESGTRTSVDMQVKGNNGAIYPVSYTLEKINDEWKVRNVIINGINIGKLFRDQFADAMQRNGNNLDKTIDGWAGEVAKAKEVTEDAAQKAAQLEHHHHHH', 'soluble'),
  ('MASEMIVDHRQKAFELLKVDAEKILKLIRVQMDNLTMPQCPLYEEVLDTQMFGLSREIDFAVRLGLVDEKDGKDLLYTLERELSALHDAFTAK', 'soluble'),
  ('GMHLKEKITTIIQGQRTGVLSTVRNDKPHSAFMMFFHEDFVLYVATDRQSKKITDIENNPNVHVLLGREGKKLDEDYIEVEGLASIEEDSTLKNKFWNNSLKRWLLRPEDPNYVLIKINPDTIYYIDGAGTTEPEFLRL', 'soluble');

Here is another sequence to look at.
Field request: soluble on expression in E. coli | item: `MAHHHHHHMSSLKYIENSINSNIRVDGRTLSTYRTIEINKNILVSADGSSSVMNEENNVICGIKLSLLTPSLDAPDEGVINLQIDCPASVVANRIKKDHLQIMSSIIYDLCLKNNIDRKKMCILPSTFVWGVDINVMVLNAGGGLLDIISMAIYVALKDTVVPVVKPKKKIDESNTFHHTKCADYQVEIVENQKTNFPYENVPICVSIGEINNKYVYDMSKVEEELVENIFVVAVTSSGKCVAFHKLYGISMEIASILNMTENSSRISHHLFEKINEAIAKIETRSVLV`
not soluble
